The measured values listed here are drawn from patent US20240002497A1.

Assay Target: T1, huNav1.7α + β1-β2-β3 (human Nav1.7α co-expressed with human Navβ1, Navβ2 and Navβ3 on cells) (human)
T1 construct: also called huNav1.7-beta1-beta2-beta3; CHO FlpIn huNav1.7α + β1-β2-β3
Assay Text: binding FACS, CHO FlpIn cells
Experimental: Binding of the ISVDs to cell-expressed Nav1.7α was detected via murine anti-Flag (Sigma, catalog #F1804). Briefly, cells were resuspended in FACS buffer (PBS, 10% FBS, NaN₃) and transferred to a 96-well V-bottom plate at 1×10^5 cells/well. Purified FLAG3-tagged ISVD was diluted in FACS buffer and added to the cells for 30 minutes at 4° C. […] Prior to the read-out, the samples were resuspended in 1 μg/mL propidium iodide (Sigma, catalog #P4170) to exclude dead cells. […]
Parameter: pEC50
Please keep in mind that pEC50 is minus log10 of the molar concentration; only the number is needed.

Check out these entries, answers already filled in.
- F010301843 (VHH, also called F0103387G04(L11V, A12V, K33R, R39Q, S50Y, S56D, G73N, T83R, V89L, N93R)) VHH: EVQLVESGGGVVQPGGSLRLSCAASGPVFNINRMAWYRQAPGKQRELVAYVTPTGDISYTDSVKGRFTISRDNSKRWSLQMNSLRPEDTALYYCRALLQPDSYSNTRTYWGQGTLVTVSS: 7.74
- F010302319 (VHH, also called F0103387G04(L11V, A12V, K33R, R39Q, S50Y, S56D, T60A, G73A, W78V, S79Y, T83R, V89L, N93R, S100R, N100cI)-FLAG3-HIS6) VHH: EVQLVESGGGVVQPGGSLRLSCAASGPVFNINRMAWYRQAPGKQRELVAYVTPTGDISYADSVKGRFTISRDASKRVYLQMNSLRPEDTALYYCRALLQPDRYSITRTYWGQGTLVTVSS: 7.82
- F010302320 (VHH, also called F0103387G04(L11V, A12V, K33R, R39Q, S50Y, S56D, T60A, G73A, W78V, S79Y, T83R, V89L, N93R)) VHH: EVQLVESGGGVVQPGGSLRLSCAASGPVFNINRMAWYRQAPGKQRELVAYVTPTGDISYADSVKGRFTISRDASKRVYLQMNSLRPEDTALYYCRALLQPDSYSNTRTYWGQGTLVTVSS: 7.52
- F010301637 (VHH, also called F0103275B05(L11V, T83R, V89L)) VHH: EVQLVESGGGVVQPGGSLRLSCAASGSIFNINSMAWYRRAPGKQRELVASSTNGGSTNYADSVKGRFTISRDNAKRVYLQMNSLRPEDTALYYCNALLQPSIYDISRTYWGQGTLVTVSS: 7.25
- F0103275B05 (VHH, also called F0103275B05 (parental)-FLAG-HIS6) VHH: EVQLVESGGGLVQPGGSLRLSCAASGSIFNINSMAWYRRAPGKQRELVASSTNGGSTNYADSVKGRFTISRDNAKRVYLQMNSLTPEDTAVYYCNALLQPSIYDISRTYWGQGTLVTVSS: 7.18
- F010302370 (VHH, also called F0103387G04(L11V, A12V, K33R, R39Q, S50Y, S56D, T60A, G73R, W78V, S79Y, T83R, V89L, N93R, D99S, N100cI)) VHH: EVQLVESGGGVVQPGGSLRLSCAASGPVFNINRMAWYRQAPGKQRELVAYVTPTGDISYADSVKGRFTISRDRSKRVYLQMNSLRPEDTALYYCRALLQPSSYSITRTYWGQGTLVTVSS: 8.05
- F010302371 (VHH, also called F0103387G04(L11V, A12V, K33R, R39Q, S50Y, S56D, T60A, G73R, W78V, S79Y, T83R, V89L, N93R, D99N, S100V, N100cI)) VHH: EVQLVESGGGVVQPGGSLRLSCAASGPVFNINRMAWYRQAPGKQRELVAYVTPTGDISYADSVKGRFTISRDRSKRVYLQMNSLRPEDTALYYCRALLQPNVYSITRTYWGQGTLVTVSS: 8.03

Now, please, on to the next binder.
What the record says about F010302324 (VHH, also called F0103387G04(L11V, A12V, K33R, R39Q, S50Y, S56D, T60A, G73R, W78V, S79Y, T83R, V89L, N93R, D99R, S100R, N100cI)) VHH: EVQLVESGGGVVQPGGSLRLSCAASGPVFNINRMAWYRQAPGKQRELVAYVTPTGDISYADSVKGRFTISRDRSKRVYLQMNSLRPEDTALYYCRALLQPRRYSITRTYWGQGTLVTVSS : pEC50 is 7.54
